target: Urokinase (Homo sapiens, UniProt P00749); experiment: Relative reaction rate of enzymatic hydrolysis of chromogenic substrates, urokinase (p-nitroaniline release at 405 nm); type: biochemical; details: relative to reference substrate XIV
Counter-ions that a name gives are not always drawn. Where a SMILES comes first, the peptide text is derived from it. [ ]: non-standard residue; d: D form. The star is where a group is joined. pNA = O=[N+]([O-])c1ccc(N*)cc1; Pip = O=C(O)[C@@H]1CCCCN1; Bz = O=C(c1ccccc1)*
Value type: Rel Reaction rates, UK (Urokinase)
Lab note: record the figure alone, no unit after it.

The reported Rel Reaction rates, UK (Urokinase) of the molecule CC(C)[C@H](NC(=O)c1ccccc1)C(=O)N1CCC[C@H]1C(=O)N[C@@H](CCCNC(=N)N)C(=O)Nc1ccc([N+](=O)[O-])cc1 [Bz-Val-Pro-Arg-pNA] (Bz-Val-Pro-Arg-pNA) was 15

The reported Rel Reaction rates, UK (Urokinase) of the molecule CC(C)[C@H](N)C(=O)N1CCC[C@H]1C(=O)N[C@@H](CCCNC(=N)N)C(=O)Nc1ccc([N+](=O)[O-])cc1 [H-Val-Pro-Arg-pNA] (H-Val-Pro-Arg-pNA) was 15

The reported Rel Reaction rates, UK (Urokinase) of the molecule CC(C)[C@H](NC(=O)c1ccccc1)C(=O)N1CCCC[C@H]1C(=O)N[C@@H](CCCNC(=N)N)C(=O)Nc1ccc([N+](=O)[O-])cc1 [Bz-Val-Pip-Arg-pNA] (Bz-Val-[Pip]-Arg-pNA) was 30

The reported Rel Reaction rates, UK (Urokinase) of the molecule CC(C)[C@H](N)C(=O)N1CCCC[C@H]1C(=O)N[C@@H](CCCNC(=N)N)C(=O)Nc1ccc([N+](=O)[O-])cc1 [H-Val-Pip-Arg-pNA] (H-Val-[Pip]-Arg-pNA) was 45

The reported Rel Reaction rates, UK (Urokinase) of the molecule CC(C)[C@@H](N)C(=O)N1CCCC[C@H]1C(=O)N[C@@H](CCCNC(=N)N)C(=O)Nc1ccc([N+](=O)[O-])cc1 [XIV, H-D-Val-Pip-Arg-pNA . 2 HCl] (H-[dV]-[Pip]-Arg-pNA) was 100

The reported Rel Reaction rates, UK (Urokinase) of the molecule CC(C)[C@@H](N)C(=O)N1CCC[C@H]1C(=O)N[C@@H](CCCNC(=N)N)C(=O)Nc1ccc([N+](=O)[O-])cc1 [XIII, H-D-Val-Pro-Arg-pNA . 2 HCl] (H-[dV]-Pro-Arg-pNA) was 95
